Listing of entries alongside the reported Ki.
- target under test: human recombinant serotonin transporter (SERT) (Homo sapiens (Human))
- procedure details: radioligand binding assay, serotonin transporter
- condition info: 11 test concentrations, duplicates
State the answer as a number, implicitly in nM.

A selection of reference data follows.
CC(C)C[C@@H](NCCCC(N)=O)C1(c2ccc(Cl)c(Cl)c2)CCC1 (single isomer, unassigned; isomer-1) [33a-(R)-Isomer]	2.3
CC(C)CC(NCCCC(N)=O)C1(c2ccc(Cl)c(Cl)c2)CCC1 (racemic) [Compound 33a-Racemic]	8.1
CCOc1ccc(C2(C(CC(C)C)NCCCC(N)=O)CCC2)cc1 (racemic) [Compound 33b-Racemic]	5.49

Enquiry: # Ki lookup, item CC(C)C[C@H](NCCCC(N)=O)C1(c2ccc(Cl)c(Cl)c2)CCC1 (single isomer, unassigned; isomer-2) [33a-(S)-Isomer]
Return: 300

====

- target under test: human recombinant norepinephrine transporter (NET) (Homo sapiens (Human), UniProt P23975)
- Sequence (P23975 whole entry): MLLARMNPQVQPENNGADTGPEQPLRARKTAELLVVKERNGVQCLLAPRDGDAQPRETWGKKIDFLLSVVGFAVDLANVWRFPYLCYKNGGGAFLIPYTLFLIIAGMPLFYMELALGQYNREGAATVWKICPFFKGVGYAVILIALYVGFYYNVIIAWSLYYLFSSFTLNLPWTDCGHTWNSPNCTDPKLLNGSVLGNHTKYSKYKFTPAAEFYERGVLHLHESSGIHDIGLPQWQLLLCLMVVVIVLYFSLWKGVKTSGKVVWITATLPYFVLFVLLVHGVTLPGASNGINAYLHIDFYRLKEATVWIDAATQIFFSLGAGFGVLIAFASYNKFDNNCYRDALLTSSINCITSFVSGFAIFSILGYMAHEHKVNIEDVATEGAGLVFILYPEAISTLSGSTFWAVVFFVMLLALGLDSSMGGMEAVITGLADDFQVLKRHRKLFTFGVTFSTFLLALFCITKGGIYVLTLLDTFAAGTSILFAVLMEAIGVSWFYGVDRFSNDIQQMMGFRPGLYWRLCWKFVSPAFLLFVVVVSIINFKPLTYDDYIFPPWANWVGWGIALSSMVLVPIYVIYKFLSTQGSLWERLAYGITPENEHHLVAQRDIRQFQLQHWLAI
- procedure details: radioligand binding assay, norepinephrine transporter
- condition info: 11 test concentrations, duplicates
measurement type: Ki (µM)
State the answer as a number, implicitly in µM.

A selection of reference data follows.
CC(C)CC(NCCCC(N)=O)C1(c2ccc(Cl)c(Cl)c2)CCC1 (racemic) [Compound 33a-Racemic]	0.0501
CC(C)C[C@H](NCCCC(N)=O)C1(c2ccc(Cl)c(Cl)c2)CCC1 (single isomer, unassigned; isomer-2) [33a-(S)-Isomer]	3.42

Next, consider the following compound.
Enquiry: # Ki lookup, item CC(C)C[C@@H](NCCCC(N)=O)C1(c2ccc(Cl)c(Cl)c2)CCC1 (single isomer, unassigned; isomer-1) [33a-(R)-Isomer]
Return: 0.0303
